Assay: BSK_hDFCGF_Proliferation: Cell Proliferation Assessment in the BioMAP Diversity Plus: hDFCGF Assay (AID 2283059);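 also: curves fitted for both rise and fall of signal versus DMSO baseline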
Settings: primary human foreskin fibroblasts
The source made the active and inactive calls. The calls were made as follows: active = hit-call score of the fitted dose curve at least 0.9, where 1 is the maximum; inactive = score below 0.9.
Hi there, use one of these labels in your reply, thanks! TRUE = active, FALSE = inactive

Query: recorded result category for O=C1c2c(O)cccc2Cc2cccc(O)c21 in this test FALSE

State the result this test recorded for O=C1O[C@H]([C@H](O)CO)C(O)=C1O . FALSE

// outcome(item) with item = C/C=C/C=C/C(=O)O FALSE

What call does the record list for CCCCC(CC)CO (stereo not drawn) ? FALSE

# lookup: test call for CSc1ccc(Oc2ccc(S(N)(=O)=O)cc2CN(C)C)cc1C TRUE

Called result for O=C1NC(=O)C(c2ccccc2)(c2ccccc2)N1 FALSE

What is the recorded call for this molecule in the test? CCCCOC(=O)CCCCC(=O)OCCCC FALSE

Per the records of this test, what outcome belongs to C#CC(O)C(CC)CCCC (stereo not drawn) ? FALSE

====

Test: CCTE_Shafer_MEA_acute_burst_number: CCTE's Neural Acute Assay for Single-Electrode Bursts, Shafer Lab (AID 2284013)
Calls of active or inactive are those of the source. How the source made its calls: active means hit-call score of the fitted dose curve at least 0.9, where 1 is the maximum; inactive means score below 0.9.
Respond only with the outcome that fits, drawn from YES for active, NO for inactive

GET /call?item= O=C1OC(c2ccc(O)cc2)(c2ccc(O)cc2)c2ccccc21 returns the recorded outcome of this test. NO

Name the outcome recorded for CCN(CC)CCOc1ccc(C(=C(Cl)c2ccccc2)c2ccccc2)cc1 in the assay. YES

I'd appreciate the recorded outcome for C/C=C/c1ccc(OC)cc1 from this test. NO

Which result was noted for this compound in the test: Cc1ccc(C(C)(C)C)c(O)c1 NO

What classification did CCc1cc(C2=C(C(=O)O)N(c3ccccc3C(F)(F)F)S(=O)(=O)c3ccccc32)cc2c1OCO2 end up with in this test? NO

Can you look up the reported call for Cc1c(C)c2c(c(C)c1O)CCC(C)(COc1ccc(CC3SC(=O)NC3=O)cc1)O2 (stereo unspecified) for me? NO

====

Read-out: Interleukin-8 (IL8), CXCL8 (gene 3576)
Test: BSK_hDFCGF_IL8: BioMAP Diversity Plus: hDFCGF Assay for Interleukin-8 (IL8) Biomarker Activity (AID 2283058)
Details: primary human foreskin fibroblasts; actives raise or lower the signal
Activity calls are given as the source filed them. How the source made its calls: active means hit-call score of the fitted dose curve at least 0.9, where 1 is the maximum; inactive means score below 0.9.
Please answer using one outcome listed in true for active, false for inactive

Hello, I am checking results. What call was entered for CCCCCCCCCCCCCCOS(=O)(=O)O ? true

State the result this test recorded for CCC(C)N(C)C(=O)c1cc2ccccc2c(-c2ccccc2Cl)n1 (stereo not drawn) . false

// param item: CC(C)(C)c1ccccc1 ; yields the recorded call false

Test call for this molecule, please: Cc1c(C)c2c(c(C)c1O)CCC(C)(COc1ccc(CC3SC(=O)NC3=O)cc1)O2 (stereo not drawn) true

Hi, sorry to bother you, what did the test record for C/C=C/c1ccc(OC)cc1 ? false

I'd appreciate the recorded outcome for CC(=O)OCC(COC(C)=O)OC(C)=O from this test. false

Could you check what this test reported for CCCCCCC(CCCCCCCCCCC(=O)OCC(COC(C)=O)OC(C)=O)OC(C)=O (stereo not drawn) ? false

// return assay outcome for CCCCc1nc2cccnc2n1Cc1ccc(-c2ccccc2-c2nnn[nH]2)cc1 false

Field: outcome | Entry: O=Cc1ccccc1C=O false

Recorded test outcome, item O=C(N[C@@H](c1ccccc1)[C@@H]1CCCCN1)c1cccc(C(F)(F)F)c1Cl false

Which outcome was entered for the molecule CC(=O)CC(c1ccccc1)c1c(O)c2ccccc2oc1=O (stereo not drawn) in this test? false

What did the test return for NCCOCCOCCN ? false

Each molecule tested received a call. Report the one for O=[Si]=O . false
